# Tested On: IRAK4 (Homo sapiens, UniProt Q9NWZ3)
# Construct: Degradation of IRAK4 in OCI-LY10 was quantitatively measured using Meso Scale Discovery technology; endogenous in cells; host or cells: OCI-LY10
# Sequence (Q9NWZ3 1-460): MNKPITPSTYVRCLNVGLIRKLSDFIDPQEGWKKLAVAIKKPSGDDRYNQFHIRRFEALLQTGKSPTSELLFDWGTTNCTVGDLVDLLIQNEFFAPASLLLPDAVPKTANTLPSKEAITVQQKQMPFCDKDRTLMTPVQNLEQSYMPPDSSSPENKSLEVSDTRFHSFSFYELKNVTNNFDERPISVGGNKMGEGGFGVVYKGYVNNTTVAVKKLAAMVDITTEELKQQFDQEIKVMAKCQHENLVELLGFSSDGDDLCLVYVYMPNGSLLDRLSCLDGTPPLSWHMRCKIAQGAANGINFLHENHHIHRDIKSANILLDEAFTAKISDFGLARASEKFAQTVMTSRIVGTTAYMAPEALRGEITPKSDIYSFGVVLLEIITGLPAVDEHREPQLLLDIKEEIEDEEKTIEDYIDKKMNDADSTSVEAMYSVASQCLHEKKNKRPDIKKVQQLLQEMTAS
# Assay Overview: IRAK4 MSD Degradation in OCI-LY10
# Type: cell-based
# Conditions: OCI-LY10 cells, 4 hrs incubation, MSD; read-out: IRAK4 degradation in OCI-LY10 at 4 hrs: DC50
The entries below are paired with their reported DC50.

Cn1c(=O)n(C2CCC(=O)NC2=O)c2cccc(C#CCN3CCN(C[C@H]4CC[C@H](n5cc(NC(=O)c6cnn7ccc(N8C[C@H]9C[C@@H]8CO9)nc67)c(C(F)(F)F)n5)CC4)CC3)c21 (relative stereo) :: 10 to 100 nM

Briefly, DC50 measured for Cn1c(=O)n(C2CCC(=O)NC2=O)c2cccc(C#CCOC3CCN(C[C@H]4CC[C@H](c5nc(C(F)F)c(NC(=O)c6cnn7ccc(N8C[C@H]9C[C@@H]8CO9)nc67)s5)CC4)CC3)c21 (some centres unmarked) : > 200 nM

Consider CCc1ccn2ncc(C(=O)Nc3cn([C@H]4CC[C@H](CN5CCN(CC#Cc6cccc7c6n(C)c(=O)n7C6CCC(=O)NC6=O)CC5)CC4)nc3C(F)F)c2n1 (some centres unmarked) . Its measured DC50 is 10 to 100 nM

Record Cn1c(=O)n(C2CCC(=O)NC2=O)c2cccc(C#CCN3CCN(C[C@H]4CC[C@H](n5cc(NC(=O)c6cnn7ccc(N8CCCC8)nc67)c(C(F)F)n5)CC4)CC3)c21 (some centres unmarked) . Reported DC50: < 10 nM

Entry under test: COc1nn([C@H]2CC[C@H](CN3CC4CC3CN4c3cccc4c3n(C)c(=O)n4C3CCC(=O)NC3=O)CC2)cc1NC(=O)c1cnn2cc(N(C)C)cnc12 (some centres unmarked) . Its DC50 was > 200 nM

Per the records, this compound ( Cn1c(=O)n(C2CCC(=O)NC2=O)c2cccc(C#CCOC3CCN(C(C#N)[C@H]4CC[C@H](n5cc(NC(=O)c6cnn7ccc(N8C[C@H]9C[C@@H]8CO9)nc67)c(C(F)F)n5)CC4)CC3)c21 (some centres unmarked) ) has DC50 equal to > 200 nM

Entry Cn1c(=O)n(C2CCC(=O)NC2=O)c2cccc(C#CCOC3CN(C[C@H]4CC[C@H](n5cc(NC(=O)c6cnn7ccc(N8C[C@H]9C[C@@H]8CO9)nc67)c(C(F)F)n5)CC4)C3)c21 (some centres unmarked) [I-20] , DC50 reported as < 10 nM

The reported value for CC(C)(O)c1cc2nn([C@H]3CC[C@H](CNCCNc4cccc5c4C(=O)N(C4CCC(=O)NC4=O)C5=O)CC3)cc2cc1NC(=O)c1cccc(C(F)(F)F)n1 (some centres unmarked) in terms of DC50 is < 10 nM

# compound CN1CC2(CCN(c3ccn4ncc(C(=O)Nc5cn([C@H]6CC[C@H](CN7CCN(CC#Cc8cccc9c8n(C)c(=O)n9C8CCC(=O)NC8=O)CC7)CC6)nc5C(F)F)c4n3)CC2)C1 (some centres unmarked) ; its DC50 = > 200 nM

The recorded DC50 for entry Cn1c(=O)n(C2CCC(=O)NC2=O)c2cccc(C#CCOC3CCN(C[C@H]4CC[C@H](n5cc(NC(=O)c6cccc(C#N)n6)c(C(C)(C)O)n5)CC4)CC3)c21 (some centres unmarked) equals > 200 nM

Briefly, DC50 measured for Cn1c(=O)n(C2CCC(=O)NC2=O)c2cccc(C#CCN3CCN(C[C@H]4CC[C@H](n5cc(NC(=O)c6cnn7ccc(N8CCOC9(CC9)C8)nc67)c(C(F)F)n5)CC4)CC3)c21 (some centres unmarked) : > 200 nM

Measured DC50, COc1ccc2c(c1C1CCN(C[C@H]3CC[C@H](n4cc5cc(NC(=O)c6cccc(C(F)(F)F)n6)ccc5n4)CC3)CC1(F)F)n(C)c(=O)n2C1CCC(=O)NC1=O (some centres unmarked) : > 200 nM

Kindly note the recorded DC50 for Cn1c(=O)n(C2CCC(=O)NC2=O)c2cccc(C3=CCN(C[C@H]4CC[C@H](n5cc6cc(NC(=O)c7cccc(C(F)(F)F)n7)ccc6n5)CC4)CC3(F)F)c21 (some centres unmarked) , which is > 200 nM

Recorded result, Cn1c(=O)n(C2CCC(=O)NC2=O)c2cccc(N3CCC(N4CCN([C@H]5CC[C@@H](n6cc(NC(=O)c7cnn8ccc(N9C[C@H]%10C[C@@H]9CO%10)nc78)c(C(F)F)n6)CC5)CC4)CC3)c21 (some centres unmarked) , DC50: > 200 nM

====

# Tested On: IRAK4 (Homo sapiens, UniProt Q9NWZ3)
# Construct: Degradation of IRAK4 in OCI-LY10 was quantitatively measured using Meso Scale Discovery technology; endogenous in cells; host or cells: OCI-LY10
# Assay Overview: IRAK4 MSD Degradation in OCI-LY10
# Assay type: cell-based
# Conditions: OCI-LY10 cells, 4 hrs incubation, MSD; read-out: IRAK4 degradation in OCI-LY10 at 4 hrs: DC50
# Method: Degradation of IRAK4 in OCI-LY10 was quantitatively measured using Meso Scale Discovery technology. […] Compounds were then added to the assay plates with a final top concentration of 1 to 10 μM in a 1:3 dilution series with total of 8 doses. […] The assay plates were then incubated at room temperature for 1 hour, washed 3 times with 150 μL/well TBST buffer, and 150 μL/well MSD reading buffer (Meso Scale Discovery catalog number R92TC-2) was added. […]
Overview of recorded DC50 for various compounds

Use these answered entries as a reference point.
O=C1CCC(c2ccc(C#CCN3CCN(C[C@H]4CC[C@H](n5cc(NC(=O)c6cnn7ccc(N8C[C@H]9C[C@@H]8CO9)nc67)c(C(F)F)n5)CC4)CC3)cc2)C(=O)N1 (some centres unmarked) :: 10 to 100 nM
Cn1c(=O)n(C2CCC(=O)NC2=O)c2cccc([C@H]3CCN(C[C@H]4CC[C@H](n5cc6cc(NC(=O)c7cccc(C(F)F)n7)c(C(C)(C)O)cc6n5)CC4)C[C@@H]3F)c21 (some centres unmarked) :: > 200 nM
Cn1c(=O)n(C2CCC(=O)NC2=O)c2cccc(C#CCOC3CCN(C[C@H]4CC[C@H](n5cc(NC(=O)c6cnn7ccc(N8CC9COCC9C8)nc67)c(C(F)F)n5)CC4)CC3)c21 (some centres unmarked) :: < 10 nM
Cn1c(=O)n(C2CCC(=O)NC2=O)c2cccc([C@@H]3CCN(C[C@H]4CC[C@H](n5cc6cc(NC(=O)c7cccc(C#N)n7)ccc6n5)CC4)C[C@@H]3F)c21 (some centres unmarked) :: > 200 nM

compound COc1cc2nn([C@H]3CC[C@H](CN4CCC5(CC4)CCN(c4cccc6c4n(C)c(=O)n6C4CCC(=O)NC4=O)CC5)CC3)cc2cc1NC(=O)c1nn(C)cc1Cl (some centres unmarked) , DC50 observed: < 10 nM

compound Cn1c(=O)n(C2CCC(=O)NC2=O)c2cccc(C#CCN3CCN(C[C@H]4CC[C@H](n5cc(NC(=O)c6cnn7cccnc67)c(C(C)(C)O)n5)CC4)CC3)c21 (some centres unmarked) , DC50 observed: > 200 nM

Looking up CN(CCCCNc1cccc2c1C(=O)N(C1CCC(=O)NC1=O)C2=O)C[C@H]1CC[C@H](n2cc3cc(NC(=O)c4cccc(C(F)(F)F)n4)c(C(C)(C)O)cc3n2)CC1 (some centres unmarked) , I found its DC50 recorded as < 10 nM

Form field DC50, entry O=C1CCN(c2cncc3c(C4=CCN(C[C@H]5CC[C@H](n6cc7cc(NC(=O)c8cccc(C(F)(F)F)n8)ccc7n6)CC5)CC4(F)F)cccc23)C(=O)N1 : > 200 nM

====

Each item that follows carries a reported DC50.
# Tested On: IRAK4 (Homo sapiens)
# Construct: Degradation of IRAK4 in OCI-LY10 was quantitatively measured using Meso Scale Discovery technology; endogenous in cells; host or cells: OCI-LY10
# Sequence (Q9NWZ3 1-460): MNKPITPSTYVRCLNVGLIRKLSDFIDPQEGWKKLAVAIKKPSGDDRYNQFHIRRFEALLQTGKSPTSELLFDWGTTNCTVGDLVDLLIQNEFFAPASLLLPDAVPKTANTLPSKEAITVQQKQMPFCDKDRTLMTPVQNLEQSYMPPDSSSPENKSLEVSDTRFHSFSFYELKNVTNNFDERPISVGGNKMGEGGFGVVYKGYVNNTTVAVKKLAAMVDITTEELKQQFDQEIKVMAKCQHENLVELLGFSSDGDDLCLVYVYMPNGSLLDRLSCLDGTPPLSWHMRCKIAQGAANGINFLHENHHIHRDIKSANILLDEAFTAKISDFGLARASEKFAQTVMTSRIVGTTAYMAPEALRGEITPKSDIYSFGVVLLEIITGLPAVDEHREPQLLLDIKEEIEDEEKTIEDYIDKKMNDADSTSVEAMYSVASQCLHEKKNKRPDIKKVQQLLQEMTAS
# Assay Overview: IRAK4 MSD Degradation in OCI-LY10
# Type: cell-based
# Conditions: OCI-LY10 cells, 24 hrs incubation, MSD; read-out: IRAK4 degradation in OCI-LY10 at 24 hrs: DC50

These solved cases illustrate the format of a correct answer.
COc1cc2nn([C@H]3CC[C@H](CN4CCC5(CC4)CCN(c4cccc6c4n(C)c(=O)n6C4CCC(=O)NC4=O)CC5)CC3)cc2cc1NC(=O)c1cncc(C)c1 (stereo partly drawn) :: > 200 nM
COc1cc2nn([C@H]3CC[C@H](CN(C)C4CCN(c5cccc6c5n(C)c(=O)n6C5CCC(=O)NC5=O)CC4(F)F)CC3)cc2cc1NC(=O)c1cccc(C(F)(F)F)n1 (stereo partly drawn) [I-710] :: 10 to 100 nM

With those in mind, consider the next compound.
Form: compound = Cn1c(=O)n(C2CCC(=O)NC2=O)c2cccc([C@H]3CCN(C[C@H]4CC[C@H](n5cc6cc(NC(=O)c7cccc(C(F)(F)F)n7)ccc6n5)CC4)C[C@@H]3O)c21 (stereo partly drawn) ; DC50 = < 10 nM
